Experiment: Displacement of [125I]dihydroalprenolol from beta adrenergic receptor
MEASURE: pKi
Scale note: pKi = -log10(concentration in M).

IN: I have this compound here, COCCc1ccc(OCC(O)CNC(C)C)cc1 (stereo unspecified) , and I need its recorded pKi.
OUT: 7.35

---

Test: Displacement of [3H]TCP from phencyclidine receptor
MEASURE: Ki (nM)
// note: answer is a bare numeric in nM

IN: I have this molecule here, c1ccc(C2(N3CCCCC3)CCCCC2)cc1 , and I need its recorded Ki.
OUT: 62.3

---

Assay: Displacement of [3H]prazosin from alpha1 adrenergic receptor
MEASURE: pKi
Scale note: pKi = -log10(concentration in M).

IN: I have this compound here, Cc1ccc(N(CC2=NCCN2)c2cccc(O)c2)cc1 , and I need its recorded pKi.
OUT: 7.89

---

Biological target: UniProt P41145
Sequence (P41145 whole entry): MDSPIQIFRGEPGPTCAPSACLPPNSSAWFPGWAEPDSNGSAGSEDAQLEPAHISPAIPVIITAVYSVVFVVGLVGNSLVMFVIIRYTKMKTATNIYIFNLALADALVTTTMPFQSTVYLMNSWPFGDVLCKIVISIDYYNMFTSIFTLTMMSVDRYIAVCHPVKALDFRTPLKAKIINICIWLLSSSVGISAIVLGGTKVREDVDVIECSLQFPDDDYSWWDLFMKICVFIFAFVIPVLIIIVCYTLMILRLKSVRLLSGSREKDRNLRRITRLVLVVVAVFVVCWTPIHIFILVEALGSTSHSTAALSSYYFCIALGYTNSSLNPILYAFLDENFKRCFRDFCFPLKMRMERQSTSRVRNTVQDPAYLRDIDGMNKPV
MEASURE: Ki (nM)
// note: answer is a bare numeric in nM

IN: I have this compound here, C[C@H]1[C@H]2Cc3ccc(O)cc3[C@]1(C)CCN2CC1CC1 [CYCLAZOCINE] , and I need its recorded Ki.
OUT: 0.2

---

Biological target: Adenosine receptor A1 (Homo sapiens)
Sequence (P30542 whole entry): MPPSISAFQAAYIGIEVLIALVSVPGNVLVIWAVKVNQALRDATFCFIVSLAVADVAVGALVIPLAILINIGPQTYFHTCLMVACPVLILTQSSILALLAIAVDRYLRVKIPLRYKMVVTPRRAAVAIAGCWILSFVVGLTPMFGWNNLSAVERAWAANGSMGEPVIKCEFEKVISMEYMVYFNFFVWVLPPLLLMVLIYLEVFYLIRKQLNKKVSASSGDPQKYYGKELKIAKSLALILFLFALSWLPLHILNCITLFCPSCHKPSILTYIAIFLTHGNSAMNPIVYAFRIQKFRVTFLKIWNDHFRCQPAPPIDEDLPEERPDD
MEASURE: Ki (nM)
// note: answer is a bare numeric in nM

IN: Lookup: Ki / Adenosine receptor A1 (Homo sapiens) / Nc1nc(Cl)nc2c1ncn2[C@@H]1O[C@H](CO)[C@@H](O)[C@H]1O
OUT: 18.4

---

Test: Displacement of [3H]GABA from GABAA receptor
MEASURE: pKi
Scale note: pKi = -log10(concentration in M).

IN: I have this compound here, NCc1cc(O)no1 , and I need its recorded pKi.
OUT: 8.59

---

Test: Displacement of [3H]NECA from adenosine A2 receptor in presence of cyclopentyladenosine
MEASURE: pKi
Scale note: pKi = -log10(concentration in M).

IN: I have this compound here, CNC(=O)[C@H]1O[C@@H](n2cnc3c(N)ncnc32)[C@H](O)[C@@H]1O , and I need its recorded pKi.
OUT: 6.69

---

Target: Thromboxane A2 receptor (Homo sapiens, UniProt P21731)
Sequence (P21731 whole entry): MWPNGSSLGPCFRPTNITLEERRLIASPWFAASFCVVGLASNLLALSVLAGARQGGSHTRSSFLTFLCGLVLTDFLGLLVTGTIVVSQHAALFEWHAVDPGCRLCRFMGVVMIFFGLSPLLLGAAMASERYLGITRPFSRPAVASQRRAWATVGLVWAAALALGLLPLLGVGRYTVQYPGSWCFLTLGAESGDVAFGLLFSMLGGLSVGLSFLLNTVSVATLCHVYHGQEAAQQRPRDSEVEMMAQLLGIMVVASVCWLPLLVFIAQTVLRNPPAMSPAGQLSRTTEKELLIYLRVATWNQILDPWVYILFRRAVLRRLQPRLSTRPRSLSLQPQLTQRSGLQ
MEASURE: pKi
Scale note: pKi = -log10(concentration in M).

IN: I have this molecule here, CCCCC[C@H](O)/C=C/[C@@H]1[C@@H](C/C=C\CCCC(=O)O)[C@H]2CO[C@@H]1C2 , and I need its recorded pKi.
OUT: 8.26

---

Experiment: Displacement of [3H]nitrendipine from L-type calcium channel
MEASURE: Ki (nM)
// note: answer is a bare numeric in nM

IN: I have this molecule here, COC(=O)C1=C(C)NC(C)=C(C(=O)OC)C1c1ccccc1[N+](=O)[O-] [NIFEDIPINE] , and I need its recorded Ki.
OUT: 1.6

---

Assay: Displacement of [3H]flunitrazepam from benzodiazepine receptor
MEASURE: Ki (nM)
// note: answer is a bare numeric in nM

IN: I have this compound here, O=C1CN=C(c2ccccc2Cl)c2cc([N+](=O)[O-])ccc2N1 , and I need its recorded Ki.
OUT: 2

Data provenance is ChEMBL document CHEMBL1147348.
